# target system: MALT1 (Homo sapiens)
# Sequence (Q9UDY8 1-824): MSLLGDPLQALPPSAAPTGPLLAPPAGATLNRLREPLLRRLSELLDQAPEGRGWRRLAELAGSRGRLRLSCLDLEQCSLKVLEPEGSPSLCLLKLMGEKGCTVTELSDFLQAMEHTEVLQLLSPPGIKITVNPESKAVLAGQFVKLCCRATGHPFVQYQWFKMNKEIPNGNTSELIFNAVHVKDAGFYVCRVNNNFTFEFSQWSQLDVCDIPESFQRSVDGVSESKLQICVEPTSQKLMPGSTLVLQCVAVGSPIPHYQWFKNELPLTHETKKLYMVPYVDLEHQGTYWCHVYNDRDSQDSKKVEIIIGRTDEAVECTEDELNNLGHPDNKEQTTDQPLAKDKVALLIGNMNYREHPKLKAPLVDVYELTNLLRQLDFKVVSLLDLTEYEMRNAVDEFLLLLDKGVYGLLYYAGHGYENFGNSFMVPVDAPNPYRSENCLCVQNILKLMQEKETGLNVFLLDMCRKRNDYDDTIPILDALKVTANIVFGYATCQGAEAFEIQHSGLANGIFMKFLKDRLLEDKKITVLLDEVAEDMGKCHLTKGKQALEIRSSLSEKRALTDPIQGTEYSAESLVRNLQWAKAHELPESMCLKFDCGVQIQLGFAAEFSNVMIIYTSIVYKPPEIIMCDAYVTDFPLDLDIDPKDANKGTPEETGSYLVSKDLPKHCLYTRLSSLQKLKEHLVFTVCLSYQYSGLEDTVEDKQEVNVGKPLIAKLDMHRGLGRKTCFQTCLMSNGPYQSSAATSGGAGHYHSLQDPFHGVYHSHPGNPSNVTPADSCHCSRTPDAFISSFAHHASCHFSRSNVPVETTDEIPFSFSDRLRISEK
pIC50: −log10 of the molar value.
measured attribute: pIC50

Problem: Which pIC50 is reported for this compound? Cn1ccc2cccc(NS(=O)(=O)c3ccc(-c4cc(C(F)(F)F)n[nH]4)nc3)c21 [Example I-143]
Solution: > 6.40

Problem: Please report the recorded pIC50 for COc1ccc2cnn(C)c2c1NS(=O)(=O)c1ccc(-n2ccc(C(F)(F)F)n2)nc1 [Example I-16] .
Solution: > 6.40

Problem: For the compound COc1ccc(Cc2ccc3c(c2N)c(=O)n(S(=O)(=O)c2ccc(-n4cc(C(F)(F)F)cn4)nc2)n3C)cc1 [Example I-203] , what pIC50 is on record?
Solution: < 5.60

Problem: For Cn1cc2ccc(Cl)c(NS(=O)(=O)c3ccc(-n4cc(C(F)(F)F)cn4)nc3)c2n1 [Example I-25] , what is its reported pIC50?
Solution: 5.60 to 6.00

Problem: pIC50 lookup needed for COc1ccc2cnn(C)c2c1NS(=O)(=O)c1ccc(-n2ccn(C)c2=O)nc1 [Example I-160] , thanks.
Solution: 5.60 to 6.00

Problem: Requested read-out: pIC50. Entry: Cn1[nH]c(=O)c2c(NS(=O)(=O)c3ccc(-n4cc(C(F)(F)F)cn4)nc3)cccc21 [Example I-198]
Solution: < 5.60

Problem: I have this compound here, COc1ccc2cnn(C)c2c1NS(=O)(=O)c1ccc(-n2cc(C(F)(F)F)nn2)nc1 [Example I-29] , and I need its recorded pIC50.
Solution: > 6.40

Problem: // pIC50 lookup, key: Cc1ncc2cccc(NS(=O)(=O)c3ccc(-n4cc(C(F)(F)F)cn4)nc3)n12 [Example I-199]
Solution: < 5.60

----------
For each of the compounds below, state its IC50.

Problem: Can you look up IC50 on UniProt Q9UDY8 for CN(C)c1ncccc1-c1ccc(S(=O)(=O)Nc2cccc3cnn(C)c23)cn1 [Example I-221] ?
Solution: > 2500 nM

Problem: Kindly state the measured IC50 obtained for COc1ccc2cnn(C)c2c1NS(=O)(=O)c1ccc(-c2csc(C)n2)nc1 [Example I-173] with UniProt Q9UDY8.
Solution: < 400 nM

Problem: Query the reported IC50 for UniProt Q9UDY8; item: Cc1[nH]ncc1-c1ccc(S(=O)(=O)Nc2cccc3cnn(C)c23)cn1 [Example I-155]
Solution: > 2500 nM

Problem: Form: Entry = Cc1cc(C)n(-c2ccc(S(=O)(=O)Nc3cccc4cnn(C)c34)cn2)n1 [Example I-40] | System = UniProt Q9UDY8 | IC50 = ____
Solution: > 2500 nM

Problem: I'm curious: which IC50 was measured for Cn1nnc2cccc(NS(=O)(=O)c3ccc(-n4cc(C(F)(F)F)cn4)nc3)c21 [Example I-64] tested on UniProt Q9UDY8?
Solution: > 2500 nM

Problem: State its IC50 on UniProt Q9UDY8: Cn1ncc2cccc(NS(=O)(=O)c3ccc(-c4cccnc4)nc3)c21 [Example I-109]
Solution: > 2500 nM

Problem: Query for UniProt Q9UDY8: what IC50 does the record show for [2H]C([2H])([2H])n1ncc2ccc(OC)c(NS(=O)(=O)c3ccc(-n4cc(C(F)(F)F)cn4)nc3)c21 [Example I-75] ?
Solution: < 400 nM

Problem: Could you share what IC50 was measured for Cn1ncc2cccc(NS(=O)(=O)c3ccc(-c4cncc(Cl)c4)nc3)c21 [Example I-121] , tested on UniProt Q9UDY8?
Solution: > 2500 nM

Problem: Request - read-out IC50 | tested on UniProt Q9UDY8 | compound COCCn1ncc2cccc(NS(=O)(=O)c3ccc(-n4ccc(C5CC5)n4)nc3)c21 [Example I-231]
Solution: > 2500 nM

Problem: Notebook entry, UniProt Q9UDY8 assay: IC50 of COc1ncc2cnn(C)c2c1NS(=O)(=O)c1ccc(-c2cc(C(F)F)n[nH]2)nc1 [Example I-204] = ?
Solution: < 400 nM

Problem: Item COc1ncc2cnn(C)c2c1NS(=O)(=O)c1ccc(-n2cc(C)cn2)nc1 [Example I-184] with UniProt Q9UDY8 - IC50?
Solution: < 400 nM

Problem: Hello, I am looking for reported IC50 with UniProt Q9UDY8 for Cn1ncc2cccc(NS(=O)(=O)c3ccc(-c4cccnc4Cl)nc3)c21 [Example I-220] . Could you help?
Solution: > 2500 nM

Problem: Give recorded IC50 with UniProt Q9UDY8 for the following compound: Cn1nccc1-c1ccc(S(=O)(=O)Nc2cccc3cnn(C)c23)cn1 [Example I-82]
Solution: > 2500 nM

Problem: Lab note: need IC50 for Cc1n[nH]c2cccc(NS(=O)(=O)c3ccc(-c4cnn5c4CCC5)nc3)c12 [Example I-288] on UniProt Q9UDY8, anyone have it?
Solution: > 2500 nM

Problem: Test system UniProt Q9UDY8; read-out IC50; what value for COc1ccc2cnn(C)c2c1NS(=O)(=O)c1ccc(-n2cnc(C(F)(F)F)c2)nc1 [Example I-286] ?
Solution: < 400 nM

Problem: I'm curious: which IC50 was measured for Cc1c(-c2ccc(S(=O)(=O)Nc3cccc4cnn(C)c34)cn2)cnn1C [Example I-88] tested on UniProt Q9UDY8?
Solution: > 2500 nM

Problem: What IC50 appears in the records for this compound with UniProt Q9UDY8? CCc1ccc2cnn(C)c2c1NS(=O)(=O)c1ccc(-c2ccncc2)nc1 [Example I-47]
Solution: 1000 to 2500 nM

----------
Please respond with reported IC50 for every item in the list.
# target system: MALT1 (Homo sapiens, UniProt Q9UDY8)
# Sequence (Q9UDY8 1-824): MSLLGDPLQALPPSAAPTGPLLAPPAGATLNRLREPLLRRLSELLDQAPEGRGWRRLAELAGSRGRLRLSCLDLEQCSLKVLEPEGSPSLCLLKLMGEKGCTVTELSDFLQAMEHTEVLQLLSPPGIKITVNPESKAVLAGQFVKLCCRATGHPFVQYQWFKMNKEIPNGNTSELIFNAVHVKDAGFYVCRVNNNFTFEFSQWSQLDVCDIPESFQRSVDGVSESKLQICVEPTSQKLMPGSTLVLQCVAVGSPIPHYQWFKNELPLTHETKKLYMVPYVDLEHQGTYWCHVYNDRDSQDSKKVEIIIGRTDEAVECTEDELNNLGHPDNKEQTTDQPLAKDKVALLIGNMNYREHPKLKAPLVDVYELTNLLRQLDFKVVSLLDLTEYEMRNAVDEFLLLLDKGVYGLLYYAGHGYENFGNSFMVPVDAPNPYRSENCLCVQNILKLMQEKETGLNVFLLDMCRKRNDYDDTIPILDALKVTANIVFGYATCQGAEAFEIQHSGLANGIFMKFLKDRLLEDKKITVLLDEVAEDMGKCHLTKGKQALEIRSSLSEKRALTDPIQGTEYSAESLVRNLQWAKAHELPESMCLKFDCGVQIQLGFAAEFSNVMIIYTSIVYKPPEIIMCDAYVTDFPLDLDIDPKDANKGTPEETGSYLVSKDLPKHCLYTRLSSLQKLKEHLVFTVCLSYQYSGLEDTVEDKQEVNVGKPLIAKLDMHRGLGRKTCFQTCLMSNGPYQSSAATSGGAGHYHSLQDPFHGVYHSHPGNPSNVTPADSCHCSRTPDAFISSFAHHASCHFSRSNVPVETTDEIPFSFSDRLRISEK

Problem: Data request, read-out IC50, for `COc1ccc2cnn(C)c2c1NS(=O)(=O)c1ccc(C(C)(C)O)nc1`
Solution: > 2500 nM

Problem: Param item = `Cn1c(=O)c2cccc(N)c2n1S(=O)(=O)c1ccc(-n2cc(C(F)(F)F)cn2)nc1` ; retrieve measured IC50.
Solution: > 2500 nM

Problem: Which value of IC50 has been reported for `COc1ncc2cnn(C)c2c1NS(=O)(=O)c1ccc(-n2ccc(C)n2)nc1` in the records?
Solution: < 400 nM

Problem: # input compound: `COc1ccc2cnn(C)c2c1NS(=O)(=O)c1ccc(N2CCN(C)C2=O)nc1` ; wanted: its IC50
Solution: 400 to 1000 nM
